Provenance of the data: patent US9650395B2

Overview of recorded MIC for various molecules
Test system: Haemophilus influenzae (H. influenzae) 49247
Assay: Antibacterial activity, MIC, H. influenzae 49247
Type: cell-based
Conditions: Haemophilus influenzae; H. influenzae 49247; read-out: MIC 49247
Source text: The antibacterial activity from a microbroth dilution method may be presented as the minimum inhibitory concentration (MIC in […]). The MIC value is the lowest concentration of a drug which prevents macroscopically visible bacterial growth under test conditions. […]
Experimental endpoint: MIC

CCc1c(-c2ccc(N3C[C@H]4CCC[C@@H](NC)[C@H]4C3)cc2)[nH]c(=O)c(C(=O)O)c1O.Cl [Cpd 296]: 3.5 to 12.5 µg/mL
CCc1cc(C(=O)O)c(=O)[nH]c1-c1ccc(N(C)C)nc1 [Cpd 86]: < 1 µg/mL
Cc1c(-c2ccc(N(C)C)cc2)[nH]c(=O)c(C(=O)O)c1O [Cpd 5]: 1 to 3.5 µg/mL
